system: MALME-3M melanoma; assay: NCI-60 one-dose screen, 48 h; settings: 10 µM unless noted
The panel holds about 83,000 compounds, 20% with a hit somewhere; the sample as a whole holds those more often. The source made the active and inactive calls. How the source made its calls: active means growth percent below 10; inactive means the rest.
Give one outcome, nothing more. List: active, inactive

What was the test verdict on CCN(CC)c1ccc(-c2cc(-c3cc(OC)c(OC)c(OC)c3)nc(N3CCOCC3)c2C#N)cc1 ?
active

What was the test verdict on N=C(N)c1ccc(-c2ccc(-c3ccc4ccccc4c3)s2)s1 ?
inactive

What was the test verdict on CC[C@@H](C(=O)[C@@H](C)[C@@H](O)[C@H](C)[C@@H]1O[C@@H]([C@@H](CC)C(=O)O)CC[C@@H]1C)[C@H]1OC2(C=C[C@@H](O)[C@]3(CC[C@@](C)([C@H]4CC[C@](O)(CC)[C@H](C)O4)O3)O2)[C@H](C)C[C@@H]1C (some centres not stated) ?
active

What was the test verdict on COc1ccc(SC2c3ccc(C)cc3Oc3nc(N)c(C#N)c(N)c32)cc1 (configuration not stated) ?
active

What was the test verdict on CC[C@]1(O)C[C@@H]2CN(CCc3c([nH]c4ccccc34)[C@@](C(=O)OC)(c3cc4c(cc3OC)N(C)[C@H]3[C@@](O)(C(N)=O)[C@H](O)[C@]5(CC)[C@@H]6C[C@@H]6CN6CC[C@]43[C@@H]65)C2)C1 ?
inactive

What was the test verdict on O=S(=O)(Nc1ccc(NS(=O)(=O)c2ccccc2)c(Cl)c1)c1ccccc1 ?
inactive

What was the test verdict on CC[N+](CC)=c1sc2c(s1)C(c1ccc(Cl)cc1)Oc1ccc(Cl)cc1-2 (configuration not stated) ?
active

* * *

test system: T-47D breast; experiment: NCI-60 one-dose screen, 48 h; conditions: 10 µM unless noted
About 83,000 compounds went through this panel and 20% of them were active in at least one assay; those are over-represented in the sample as a whole. The source made the active and inactive calls. The calls were made as follows: active = growth percent below 10; inactive = the rest.
Give one outcome, nothing more. List: 1 for active, 0 for inactive

Reference set, count: 5
> print(dat)
                                   molecule  assigned.category
1  COc1cc(-c2ccc3c(c2)NC(=O)/C3=C\c2ccc[nH]2)ccc1O                  0
2  Cc1ccc(-c2onc3c(=O)[nH]nc(-c4ccccc4)c23)cc1                  0
3  CCn1c(O)c(/C=N/NC(=O)C(C)c2ccc(CC(C)C)cc2)sc1=S (centres undefined)                  0
4  CN(C)S(=O)(=O)c1cccc(-c2nc3sc4c(c3c(=O)[nH]2)CCCC4)c1                  1
5  CC(=O)O[C@H]1[C@@H]2OC(=O)C(CSc3ccccc3)[C@@H]2C[C@H]2O[C@]2(C)CC/C=C(\C)CCC[C@@H]1C (some centres undefined)                  0

What was the test verdict on O=C1c2cc3c(cc2-c2c1c1ccc(F)cc1c(=O)n2C[C@H](O)[C@@H](O)[C@H](O)CO)OCO3 ?
1

What was the test verdict on CCOc1cc2ncc(C#N)c(Nc3ccc(OCc4cccc(F)c4)c(Cl)c3)c2cc1NC(=O)CC1CCSS1 (centres undefined) ?
1

What was the test verdict on Cc1cc(NS(=O)(=O)c2ccc(-c3cnc(C4CC4)o3)cc2)ccc1Cl ?
0

What was the test verdict on CCOC(=O)c1csc(NC(=O)COc2cccc(/C=C3\CSc4ccccc4C3=O)c2)n1 ?
0

* * *

tested on: M14 melanoma; assay: NCI-60 one-dose screen, 48 h (100 = growth as untreated, 0 = no growth, -100 = all killed); settings: 10 µM unless noted
The panel holds about 83,000 compounds, 20% with a hit somewhere; the sample as a whole holds those more often.
Label 1 when growth is strictly below 50%; otherwise label -1.

Reference set, count: 4
> print(dat)
                                chem.smiles  subject.of.test  assigned.category
1  C=C1C(=O)O[C@H]2[C@H]1CC/C(C=Nc1ccc(C(F)(F)F)cc1N)=C\CC[C@@]1(C)O[C@@H]21     M14 melanoma                  1
2  COc1cccc(-c2nc3sccn3c2-c2ccnc(NCCCNS(=O)(=O)c3cccc(F)c3)c2)c1     M14 melanoma                  1
3  COc1ccc(S(=O)(=O)N2CCN(C)CC2)cc1NC(=O)c1[nH]c(C)c2c1CCCCC2=O     M14 melanoma                 -1
4  Nc1ccc(S(=O)(=O)O)c2ccc(N=Nc3ccc(N=Nc4ccc(S(=O)(=O)O)cc4)c4ccccc34)c(O)c12     M14 melanoma                 -1

Quick check: does COc1ccc(-c2n[nH]nc2-c2csc3ccccc23)cc1OC have growth under 50%?
1

* * *

system: HS 578T breast; experiment: NCI-60 one-dose screen, 48 h; conditions: 10 µM unless noted
The panel holds about 83,000 compounds, 20% with a hit somewhere; the sample as a whole holds those more often. The source made the active and inactive calls. How the source made its calls: active means growth percent below 10; inactive means the rest.
Give one outcome, nothing more. List: active, inactive

> print(dat)
                                   compound  assigned.category
1  O=C1CC(=NCC(=O)n2c(-c3ccccc3)nc3ccccc32)NN1           inactive
2  COc1cccc(-c2nc3sccn3c2-c2ccnc(NCCCNS(=O)(=O)c3c(Cl)cccc3Cl)c2)c1           inactive
3  Nc1n[nH]c2ccc([C@@H]3Nc4ccc5[nH]ncc5c4[C@H]4C5C=CC(C5)[C@@H]34)cc12 (some centres undefined)             active

What was the test verdict on COc1ccc(-c2n[nH]nc2-c2csc3ccccc23)cc1OC ?
active

What was the test verdict on O=C1C=CC(=O)N1c1ccc2c(c1)Cc1cc(F)ccc1-2 ?
inactive

What was the test verdict on FC(F)(F)c1[nH]ncc1-c1nc2ccc3n[nH]c(C#Cc4cccnc4)c3c2c2c1CCCC2 ?
inactive

What was the test verdict on COc1ccc2c(c1)CC/C(=C\c1cncc(Br)c1)C2=O ?
inactive

What was the test verdict on CC(C)c1c(C(=O)c2ccccc2)c(-c2ccccc2)c(-c2ccc(F)cc2)n1CC[C@@H](O)C[C@@H](O)CC(=O)O ?
inactive

What was the test verdict on O=C(/C=C/c1cc(CN2CCOCC2)c(O)c2ncccc12)c1cc(CN2CCOCC2)c(O)c2ncccc12 ?
inactive

* * *

system: HT29 colon; experiment: NCI-60 one-dose screen, 48 h; conditions: 10 µM unless noted
Compounds without any hit were thinned out: in the full panel of roughly 83,000, 20% have a hit. The source made the active and inactive calls. How the source made its calls: active means growth percent below 10; inactive means the rest.
Give one outcome, nothing more. List: y (active), n (inactive)

Molecule	Assigned Category
C=CC(=O)Nc1cccc(-c2nc(SC)nc(NCc3ccccc3)c2C#N)c1	n
Nc1n[nH]c2ccc([C@@H]3Nc4cc5c(cc4[C@H]4C6CCC(C6)[C@@H]34)C(=O)NC5)cc12 (some centres not stated)	n
COc1cccc2c1C(=O)c1c(O)c3c(c(O)c1C2=O)C[C@](O)(C(=O)CO)C[C@H]3O[C@@H]1C[C@@H](NC(=O)CCCCCN(C)C2(c3ccc(F)cc3)CC3CCC2C3)[C@H](O)[C@@H](C)O1 (some centres not stated)	y
O=S(=O)(Nc1ccc(Br)c(Cl)c1)c1ccc(-c2cnc(C3CC3)o2)cc1	y
COc1ccc2[nH]cc(-c3noc(C(=O)c4cn(C)c5ccc(F)cc45)n3)c2c1	n

Switching to the query record.
What was the test verdict on C=CC(=O)Nc1cccc(Nc2nc(SC)nc(-c3cccc([N+](=O)[O-])c3)c2C#N)c1 ?
n

* * *

tested on: RXF 393 renal; experiment: NCI-60 one-dose screen, 48 h (100 = growth as untreated, 0 = no growth, -100 = all killed); conditions: 10 µM unless noted
Compounds without any hit were thinned out: in the full panel of roughly 83,000, 20% have a hit. Active and inactive are the calls of the source. How the source made its calls: active means growth percent below 10; inactive means the rest.
Measured growth of individual entries

> print(dat)
                                   compound  recorded.measurement
1  CCOC(=O)c1c(C)oc2ncnc(N3CCN(C(=O)COc4ccc(SC)cc4)CC3)c12      99.7% (inactive)

Then this compound:
What value of growth has been reported for the following compound? NS(=O)(=O)c1ccc(CN=C2NC(=O)S/C2=C\c2ccc(Br)cc2)cc1
105% (inactive)

* * *

test system: HCT-116 colon; assay: NCI-60 one-dose screen, 48 h (100 = growth as untreated, 0 = no growth, -100 = all killed); conditions: 10 µM unless noted
The panel holds about 83,000 compounds, 20% with a hit somewhere; the sample as a whole holds those more often.
Measured growth of individual entries
Please reply with the bare figure in % and do not write the unit itself.

Field: example entries. Status: answers known.
Compound	Quantity Unit	growth
NNCCc1ccc(NC(=O)CCCc2ccc(/C=C/C(=O)NO)cc2)cc1	%	35.3
CC1=C[C@H]2c3c(c(O)c(O)c4oc5ccccc5c(=O)c34)[C@H](c3cc(O)c(O)c4oc5ccccc5c(=O)c34)[C@H]2C(C)(C)C1	%	-84.8
Cc1ncc(C(=O)Nc2ccc(CN3CCN(C)CC3)c(C(F)(F)F)c2)cc1C#Cc1cnc2cccnn12	%	0.541
CN1CCN=C1c1ccc(NC(=O)c2ccc(C(=O)Nc3ccc(C4=NCCN4C)cc3)cc2)cc1	%	91.1
C/C1=C\CC[C@@]2(C)O[C@H]2[C@H]2OC(=O)C(CN3CCN(CC4C(=O)O[C@H]5[C@H]4CC/C(C)=C/CC[C@@]4(C)O[C@@H]54)CC3)[C@@H]2CC1 (stereo partly drawn)	%	88
COc1ccc(-c2cc(-c3ccc(Nc4ccnc5cc(Cl)ccc45)cc3)nc(N3CCOCC3)n2)cc1	%	52.8

Request: growth, test system HCT-116 colon, entry CCCCCCN(CCCCCC)CCC(O)c1ccc2ccccc2c1 (stereo not drawn)
24.3

Request: growth, test system HCT-116 colon, entry C=CC(COC(c1ccccc1)(c1ccccc1)c1ccccc1)N(CC)CC (stereo not drawn)
35.9
